observation type: melting point

melting point recorded for this compound, CC(=O)C1=C(O)C=C2Oc3c(C(=O)CO)c(O)c(C)c(O)c3[C@@]2(C)C1=O [Compound 10] , is 107 to 110 °C

Sample CC(=O)C1=C(O)C=C2Oc3c(C(=O)CSC(C)C(=O)O)c(O)c(C)c(O)c3[C@@]2(C)C1=O (mixture of isomers) [Compound 5b] ; melting point observed: 91 to 95 °C

response.value for CC(=O)c1c(O)c(C)c(O)c2c1O[C@@H]1Cc3onc(C)c3C(=O)[C@]21C [Compound 14] (field: melting point) = 152 to 156 °C

So, CC(=O)c1c(O)c(C)c(O)c2c1O[C@@H]1CC/C(=C(/C)O)C(=O)[C@]21C [Compound 13] ? Its melting point was 100 to 103 °C

Continuing:
Value of measured melting point for the entry CCC1=C(O)C[C@H]2Oc3c(C(C)=O)c(O)c(C)c(O)c3[C@@]2(C)C1=O [Compound 12] : 58 to 62 °C

Data origin: paper PMC9611092
